Provenance of the data: patent US10577363B2

# IC50 listing for each entry below
- measured.on: SMYD3 (Homo sapiens (Human))
- assay: SMYD3 biochemical assay (SPA, 3H-SAM methylation of MEKK2 protein substrate)
- particulars: Table 2A; read-out: SMYD3 Biochem IC50
I'd appreciate it if you included the unit after the number.

1. C[C@H]1C[C@@H](NC(=O)c2cc(C3CC3)on2)CCN1S(=O)(=O)N1CC2CC1CN2 (some centres unmarked) [compound 570]	6.7 nM
2. C[C@H]1C[C@@H](NC(=O)c2cc(C3CC3)on2)CCN1S(=O)(=O)CCCNCc1cccc(C(F)(F)F)c1 [compound 609]	18.8 nM
3. CNCCNCCCS(=O)(=O)N1[C@@H]2CC[C@H]1C[C@@H](NC(=O)c1cc(C3CC3)on1)C2 [compound 563]	5.3 nM
4. NCCNCCCS(=O)(=O)N1[C@@H]2CC[C@H]1C[C@@H](NC(=O)c1cc(C3CC3)on1)C2 [compound 564]	5.3 nM

Briefly, IC50 measured for O=C(N[C@H]1C[C@H]2CC[C@@H](C1)N2S(=O)(=O)CC1CCN(CCN2CCOCC2)CC1)c1cc(C2CC2)on1 [compound 619] : 23.2 nM

---

- measured.on: SMYD3 (Homo sapiens (Human))
- assay: SMYD3 biochemical assay (SPA, 3H-SAM methylation of MEKK2 protein substrate)
- particulars: average of n = 1 to n = 50; read-out: SMYD3 Biochem IC50
measured.property: pIC50
Lab note: report pIC50 as minus log10 of the concentration in molar units, number only.

Briefly, pIC50 measured for O=C(N[C@H]1CCN(S(=O)(=O)CC2CCN(CCO)CC2)[C@@H](Cc2ccccc2)C1)c1cc(C2CC2)on1 [compound 662] : 7.10

Briefly, pIC50 measured for CN(C)C1CCN(CCS(=O)(=O)N2[C@@H]3CC[C@H]2C[C@@H](NC(=O)c2cc(C4CC4)on2)C3)C1 (stereo partly drawn) [compound 651] : 7.30

Briefly, pIC50 measured for Nc1cc(S(=O)(=O)N2[C@@H]3CCC[C@H]2C[C@@H](NC(=O)c2cc(C4CC4)on2)C3)ccn1 [compound 730] : 6.38

Briefly, pIC50 measured for CN(C1CCNCC1)S(=O)(=O)N1[C@@H]2CCC[C@H]1C[C@@H](NC(=O)c1cc(C3CC3)on1)C2 [compound 678] : 6.95

Briefly, pIC50 measured for CC(C)[C@@H]1CN(S(=O)(=O)N2CC[C@H](NC(=O)c3cc(C4CC4)on3)C[C@@H]2C)CCN1C [compound 728] : 6.42

Briefly, pIC50 measured for C[C@H]1C[C@@H](NC(=O)c2cc(C3CC3)on2)CCN1S(=O)(=O)CCCNC(c1ccccc1)c1ccccc1 [compound 645] : 7.35
